Entries annotated with measured melting point

Take a look at these entries with their results.
OC(c1ccccc1)(c1ccc(F)cc1)c1ncc[nH]1 (stereo not given) = 199 to 200 °C
COc1ccc(C2=NN(CCCCOc3ccc(C4=NNC(=O)CC4C)c(F)c3F)C(=O)C2(C)C)c2cc(C(F)(F)F)sc12 (stereo not given) = 137 to 138 °C
Fc1ccc(-n2cc(OCCN3CCCCC3)c3cc(Cl)ccc32)cc1 = 82 to 84 °C

Fill in reported melting point for this entry: CC(=O)CC(=O)OC(c1ccccc1)c1ccccc1
44 to 54 °C

Fill in reported melting point for this entry: CC(C)c1nn2ccccc2c1Br
51 to 52 °C

----------
property-name: melting point

Cc1c(CCCC=CC(=O)O)cccc1Cc1ccc(Cl)cc1 = 115 °C
CCc1cccc(CC(=O)O)c1OCCCc1cn(Cc2nc(-c3ccccc3)oc2C)nc1C(C)C = 94 to 95 °C
CC(=O)OCC1OC(n2cnc3c(NCC(c4ccccc4)c4ccccc4)nc(Cl)nc32)C(OC(C)=O)C1OC(C)=O (stereo not given) = 68 to 71 °C
O=C(Nc1ccc(S(=O)(=O)c2ccccc2)cc1)C1(O)CCCC1 = 214 to 216 °C
COc1ccc(-n2c(=O)c(C)nc3cccnc32)cc1 = 251 to 252 °C

Fill in reported melting point for this entry: O=C(c1ccccc1)c1cc2cc(Cl)ncc2[nH]1
194 to 197 °C

Fill in reported melting point for this entry: Cc1nc(N2CCN(Cc3ccc(C(F)(F)F)nc3)C2=O)sc1C(N)=O
225 to 228 °C

Fill in reported melting point for this entry: CC(CO)Oc1cc(-n2nc3n(c2=O)CCCC3)c(Cl)cc1Cl (stereo not given)
54 to 57 °C

Fill in reported melting point for this entry: N#CCCOc1ccc(OCCC#N)cc1
138 to 140 °C

Fill in reported melting point for this entry: NC1=C([N+](=O)[O-])C(=O)NC1=Cc1ccccc1
> 260 °C

----------
property-name: melting point

Take a look at these entries with their results.
COC(=O)c1cc2ccccc2n1C1=CC(C)(C)Oc2ccc(C#N)cc21 = 197 to 200 °C
O=c1c2cc(Br)ccc2nc(C(S)c2ncnc3[nH]cnc23)n1-c1ccccc1Cl (stereo not given) = 212 to 242 °C

Fill in reported melting point for this entry: COc1ccccc1-c1cc(O)c(-c2ccccc2C(=O)O)nn1
224 to 227 °C

Fill in reported melting point for this entry: CC(=NNc1ccccc1)c1ccc(O)cc1O
159 °C

Fill in reported melting point for this entry: COc1ccc(C=CC(=O)c2cccc(OCCCCBr)c2)cc1
91 to 92 °C

----------
Entries annotated with measured melting point

Take a look at these entries with their results.
COC(=O)C1CC(C#N)(c2ccc(OC)c3oc(C(C)C)nc23)CCC1=O (centres undefined) = 150 °C
CCc1nc(/C=C/c2cn(-c3ccccc3)nc2OCc2ccc(OCc3nc(-c4cccc(CO)c4)oc3C)c(OC)c2)cs1 = 130 to 132 °C
CCOC(=O)C(=O)Nc1cc(C#N)c(C(C)=O)cc1[N+](=O)[O-] = 142 to 144 °C
COc1cc2c(cc1OC)[C@@H](c1ccc([N+](=O)[O-])cc1)NN(C1=NC(=O)CS1)[C@@H](C)C2 = 238 to 239 °C
O=C(NCCN1CCCC1)c1ccc(-c2cnc3c(c2)N(Cc2c(Cl)cccc2Cl)C(=O)CN3)cc1 = > 200 °C
CCC(=O)NCC1CC1c1cccc2nc(C(F)(F)F)cn12 (centres undefined) = 148 to 151 °C
COc1ccc2[nH]cc(CCN3CCC(c4ccc(C)cc4)CC3)c2c1 = 131 to 133 °C
CN(C)CCc1[nH]c2ccccc2c1CC(C#N)(c1ccccc1)c1ccccc1 = 181 to 185 °C

Alright, here's another compound for you.
Fill in reported melting point for this entry: O=C(CN1CCC(Cc2ccccc2)CC1)Nc1ccc2[nH]ncc2c1
170 to 174 °C

----------
property-name: melting point

CN1CCN(C(=O)Nc2ccccc2NC(=O)c2cc(C(C)(C)C)c(O)c(C(C)(C)C)c2)CC1 = 160 to 161 °C
CCc1ccc2c3c(c(=O)oc2c1)CNCC3 = 80 to 85 °C
O=C(Nc1ccccc1C(c1ccc(O)cc1)c1ccc(O)cc1)C12CC3CC(CC1C3)C2 = 155 to 157 °C
Cc1cc(-n2nc(C#N)cc2-c2ccc(S(C)(=O)=O)cc2)ccc1Br = 152 °C
FC(F)(F)c1nc2cnc3ccccc3c2s1 = 113 to 114 °C
CC12CCC3C(CCC4=CC(=O)CCC43C=O)C1CCC2=O (stereo not given) = 126 to 129 °C
COc1ccc(-n2ccc(=O)c(-c3ccnn3-c3ccccc3)n2)cc1 = 179 to 180 °C
CN1C(=O)CN(C(=O)c2ccccc2)N(c2cc(Cl)c(C(C#N)c3ccc(Cl)cc3)c(Cl)c2)C1=O (stereo not given) = 148 °C
CCN(CC)CCOc1ccc(Nc2ncc3c(n2)N(C2CCCC2)C(=O)NC3)cc1C = 175 to 177 °C
OC/C=C/c1ccc(O)cc1 = 116 to 118 °C

Fill in reported melting point for this entry: CC(C)Cc1cc(C(N)=O)nn1C
118 to 120 °C

Fill in reported melting point for this entry: CC(C)(C)OC(=O)N1CCN(C(c2ccccc2)c2ccc(Cl)cc2)CC1 (single isomer, unassigned; (-))
156 °C

Fill in reported melting point for this entry: C#CCC1(C2CCC3C(O[Si](C)(C)C(C)(C)C)CCCC32C)CC1 (stereo not given)
49 to 50 °C

Fill in reported melting point for this entry: CC(C)(C)OC(=O)N[C@@H](Cc1ccc(Cc2ccccc2)cc1)C(=O)O
103 to 107 °C

Fill in reported melting point for this entry: COc1cc(Nc2c(C#N)cnc3cc(C#CCN(C)C)sc23)c(Cl)cc1Cl
164 to 166 °C

Fill in reported melting point for this entry: O=c1c(Cl)c(OCc2ccc(F)cc2F)ccn1Cc1ccc2[nH]ccc2c1
152 to 153 °C

Fill in reported melting point for this entry: COc1ccccc1N1CCN(CCCNC2=CC(=O)N(C)S(=O)(=O)N2C)CC1
137 to 139 °C

Fill in reported melting point for this entry: CCOC(=O)c1c(CC(=O)O)n(-c2ccc(OC(C)C)cc2)c2ccc(Oc3ccc(C(F)(F)F)cc3)cc12
158 °C

Fill in reported melting point for this entry: Fc1ccccc1NC(=S)c1ccccn1
94 to 97 °C

Fill in reported melting point for this entry: COc1ccc(CCNC=C2C(=O)Nc3cc(OC)c(OC)cc32)cc1OC
164 to 166 °C

----------
Entries annotated with measured melting point

Take a look at these entries with their results.
CCOC(=O)c1c(C)cc(OCc2cccc(OCc3ccc4ccccc4n3)c2)cc1O = 127 to 128 °C
O=c1oc(=O)n(Cc2ccccc2)c2ncccc12 = 168 °C
CSCC(=O)[C@H](COCc1ccccc1)NC(=O)[C@H](CC(C)C)NC(=O)OCc1ccccc1 = 58 to 70 °C
CCC(C(=O)c1ccc(N(CCN(CC)CC)S(C)(=O)=O)cc1)c1ccccc1 (stereo not given) = 76 to 77 °C
CCOC(=O)c1c(C(C)C)nn(-c2ccccc2)c1-c1ccc(F)cc1 = 92 to 93 °C

Alright, here's another compound for you.
Fill in reported melting point for this entry: C[C@H](NC(=O)CCn1cc(C2=C(c3cn(C)c4ccccc34)C(=O)NC2=O)c2ccccc21)C(=O)O
240 to 255 °C

----------
property-name: melting point

Take a look at these entries with their results.
N#Cc1cccc(-c2nc(N3CCC(O)C3)cc3cccnc23)c1 (stereo not given) = 132 to 133 °C
CC(C)Cc1nc2c(N)nc3ccccc3c2n1CCOc1ccccc1 = 177 to 178 °C
CN(C)Cc1cc2nc(C(=O)O)c(=O)[nH]c2cc1[N+](=O)[O-] = > 300 °C
CNc1ccc(S(=O)(=O)Nc2ccccc2)cc1 = 113 to 114 °C
CCOc1c(OC)cccc1-c1nc2ccc(C(=O)O)cc2c(=O)[nH]1 = 168 to 169 °C
COCCOc1ccc(CCC(=O)O)c(Oc2ncc(C(F)(F)F)cc2Cl)c1 = 116 to 117 °C

Fill in reported melting point for this entry: CS(=O)(=O)c1ccc(-c2[nH]c3ccccc3c2-c2ccc(Br)cc2)cc1
225 to 226 °C

Fill in reported melting point for this entry: CCOC(=O)C(C#N)=NC(=CN1CCOCC1)CC
127 to 128 °C

Fill in reported melting point for this entry: COc1ccc2c(c1)N(CCCCl)c1cccc(S(C)(=O)=O)c1S2
122 to 124 °C

Fill in reported melting point for this entry: O=C(O)CCc1conc1-c1ccc(F)c(Cl)c1
140 to 141 °C

----------
Entries annotated with measured melting point

CN1CC(CCl)C(c2ccccc2)(c2ccccc2)C1=O (stereo not given) = 120 to 122 °C
CCOC(=O)CC1CN=C(c2cc3cc(OC(F)(F)F)cc(N(C)S(=O)(=O)c4cccs4)c3[nH]2)S1 (stereo not given) = 93 to 94 °C

Fill in reported melting point for this entry: CCOC(=O)Nc1c(-c2ccccc2)c2cc(Cl)ccc2n1C
123 to 124 °C

Fill in reported melting point for this entry: CN(C)C(=O)Cc1csc(NC(=O)C(Cc2ccccc2)NC(=O)OC(C)(C)C)n1 (stereo not given)
139 to 140 °C

Fill in reported melting point for this entry: CCOCc1nc2c(N)nc3cc(-c4cccnc4)ccc3c2n1Cc1ccc(CN)cc1
211 to 214 °C

Fill in reported melting point for this entry: COc1ccc(-c2ncc(NC(=O)OCc3ccccc3)c(=O)n2CC(=O)NC(Cc2ccccc2)C(=O)C(F)(F)F)cc1 (stereo not given)
172 to 174 °C

Fill in reported melting point for this entry: COc1ccccc1Nc1nc(N)nc2c(OC)cccc12
243 to 244 °C

Fill in reported melting point for this entry: CCCCCCCCCCCCCCCCCCOc1ccc2c(c1)C(=O)c1ccc(OCCCCCCCCCCCCCCCCCC)cc1C2=O
112 to 122 °C
